These data points were gathered from patent US5792775A.

Experimental target: UniProt:P31652
Sequence (P31652 whole entry): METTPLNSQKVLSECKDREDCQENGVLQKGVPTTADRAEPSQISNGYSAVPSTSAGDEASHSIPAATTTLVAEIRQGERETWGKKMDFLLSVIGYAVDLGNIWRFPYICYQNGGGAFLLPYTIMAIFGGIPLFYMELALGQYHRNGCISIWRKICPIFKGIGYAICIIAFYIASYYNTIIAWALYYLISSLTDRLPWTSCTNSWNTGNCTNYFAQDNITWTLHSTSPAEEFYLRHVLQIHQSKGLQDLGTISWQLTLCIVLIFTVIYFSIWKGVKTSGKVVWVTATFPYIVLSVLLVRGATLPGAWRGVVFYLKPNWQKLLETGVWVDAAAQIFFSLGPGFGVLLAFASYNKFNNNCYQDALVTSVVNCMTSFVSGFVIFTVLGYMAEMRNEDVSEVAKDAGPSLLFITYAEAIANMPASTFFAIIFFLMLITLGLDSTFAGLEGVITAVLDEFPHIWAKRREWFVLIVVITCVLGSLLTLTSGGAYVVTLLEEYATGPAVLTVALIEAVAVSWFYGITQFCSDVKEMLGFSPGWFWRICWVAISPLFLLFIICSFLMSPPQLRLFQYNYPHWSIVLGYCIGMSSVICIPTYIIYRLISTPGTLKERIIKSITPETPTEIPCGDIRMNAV
Test: Serotonin transporter binding ([^3 H]citalopram), NOVASCREEN
Property: pKi
Answer as the number alone; pKi is minus log10 of concentration in mol/L.

Use these answered entries as a reference point.
- Smiles notation: "Fc1ccc(C(O[C@H]2C[C@H]3CC[C@@H](C2)N3CC2CC2)c2ccc(F)cc2)cc1"
  Measured: 7.27
- Smiles notation: "C=CCN1[C@@H]2CC[C@H]1C[C@@H](OC(c1ccc(F)cc1)c1ccc(F)cc1)C2"
  Measured: 5.71
- Smiles notation: "Fc1ccc(CN2[C@@H]3CC[C@H]2C[C@@H](OC(c2ccc(F)cc2)c2ccc(F)cc2)C3)cc1"
  Measured: 7.27
- Smiles notation: "Fc1ccc(C(O[C@H]2C[C@H]3CC[C@@H](C2)N3CC=Cc2ccccc2)c2ccc(F)cc2)cc1"
  Measured: 5.83

Okay, next one:
Fc1ccc(C(O[C@H]2C[C@H]3CC[C@@H](C2)N3Cc2ccccc2)c2ccc(F)cc2)cc1 tested on UniProt:P31652 gave pKi: 5.74

----------
Experimental target: norepinephrine transporter (NET) (Rattus norvegicus)
Sequence (Q63380 1-617): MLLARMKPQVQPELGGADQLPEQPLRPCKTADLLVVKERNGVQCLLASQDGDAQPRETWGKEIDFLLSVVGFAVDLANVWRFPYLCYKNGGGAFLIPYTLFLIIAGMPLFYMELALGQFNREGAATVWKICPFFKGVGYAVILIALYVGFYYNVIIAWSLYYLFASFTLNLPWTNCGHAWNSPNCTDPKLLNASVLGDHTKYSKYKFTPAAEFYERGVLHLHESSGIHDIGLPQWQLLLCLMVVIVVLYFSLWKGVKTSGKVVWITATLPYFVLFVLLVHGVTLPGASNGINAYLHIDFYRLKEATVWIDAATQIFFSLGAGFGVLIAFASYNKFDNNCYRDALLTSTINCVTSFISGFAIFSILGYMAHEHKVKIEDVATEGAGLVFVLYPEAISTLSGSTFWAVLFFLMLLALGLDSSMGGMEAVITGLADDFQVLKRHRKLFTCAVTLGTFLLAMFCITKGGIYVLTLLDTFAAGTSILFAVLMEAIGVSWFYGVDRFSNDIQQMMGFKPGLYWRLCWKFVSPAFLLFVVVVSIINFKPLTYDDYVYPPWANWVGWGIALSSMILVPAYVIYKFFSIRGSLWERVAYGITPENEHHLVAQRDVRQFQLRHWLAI
Test: biochemical
Type: binding
Details: read-out: NET (% I@10 μM)
Measured inhibition at 10 µM by item

Use these answered entries as a reference point.
- Compound: "CN1[C@@H]2CC[C@H]1C[C@@H](OC(c1ccccc1)c1ccc(Cl)c(Cl)c1)C2 (stereo partly drawn) [Compound 7k]"
  inhibition at 10 µM: "56.5%"
- Compound: "CN1[C@@H]2CC[C@H]1C[C@@H](OC(c1ccc(F)cc1)c1ccc(Cl)c(Cl)c1)C2 (stereo partly drawn) [Compound 7l]"
  inhibition at 10 µM: "57.8%"

Okay, next one:
inhibition at 10 µM reading for CN1[C@@H]2CC[C@H]1C[C@@H](OC(c1ccccc1)c1ccc(C(F)(F)F)cc1)C2 (stereo partly drawn) [Compound 7m] : 34.6%

----------
Measured Ki by item
Experimental target: dopamine transporter (DAT) (Rattus norvegicus, UniProt P23977)
Construct: brains removed to an ice-cooled dish for dissection of the caudate putamen; from tissue; host or cells: rat caudate putamen, washed membranes of male Sprague-Dawley rats (Taconic)
Sequence (P23977 whole entry): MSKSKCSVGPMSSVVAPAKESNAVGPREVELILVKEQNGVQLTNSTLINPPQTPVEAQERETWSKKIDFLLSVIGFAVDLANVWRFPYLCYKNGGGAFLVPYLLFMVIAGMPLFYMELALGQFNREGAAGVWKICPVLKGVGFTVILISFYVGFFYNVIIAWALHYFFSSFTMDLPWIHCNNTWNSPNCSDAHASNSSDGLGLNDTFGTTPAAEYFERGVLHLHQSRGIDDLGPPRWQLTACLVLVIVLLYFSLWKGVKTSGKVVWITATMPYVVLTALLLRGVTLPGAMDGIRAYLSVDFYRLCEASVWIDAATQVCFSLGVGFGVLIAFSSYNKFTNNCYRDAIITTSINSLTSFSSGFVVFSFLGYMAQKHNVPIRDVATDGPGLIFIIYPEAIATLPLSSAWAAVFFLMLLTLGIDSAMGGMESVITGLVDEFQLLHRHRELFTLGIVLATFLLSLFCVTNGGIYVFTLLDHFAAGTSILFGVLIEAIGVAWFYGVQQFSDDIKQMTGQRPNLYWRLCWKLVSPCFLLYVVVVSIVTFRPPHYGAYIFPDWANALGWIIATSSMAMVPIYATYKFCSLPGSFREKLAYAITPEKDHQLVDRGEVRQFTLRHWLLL
Test: Displacement of [^3 H]WIN 35,428 binding (Dopamine Transporter Binding Assay)
Details: Table III; displacement of [^3 H]WIN 35,428, rat caudate putamen; % error in parentheses
The reply should be a number in nM, with the unit left off.

Use these answered entries as a reference point.
- Molecule: "CCc1ccc(C(O[C@H]2C[C@H]3CC[C@@H](C2)N3C)c2ccccc2)cc1 (stereo partly drawn)"
  Property: "Ki"
  Unit symbol: "nM"
  Measured: 520
- Molecule: "CN1[C@@H]2CC[C@H]1C[C@@H](OC(c1ccccc1)c1ccc(C(F)(F)F)cc1)C2 (stereo partly drawn)"
  Property: "Ki"
  Unit symbol: "nM"
  Measured: 635

CN1[C@@H]2CC[C@H]1C[C@@H](OC(c1ccccc1)c1ccc(Cl)c(Cl)c1)C2 (stereo partly drawn) tested on dopamine transporter (DAT) (Rattus norvegicus, UniProt P23977) gave Ki: 22.1
